target: delta opioid receptor (DOR) (Homo sapiens, UniProt P41143); test: SPA-based GTP-γ-S binding assay, delta opioid receptor; details: membranes, GTP-γ-[35S] SPA; antagonist assay with agonist DPDPE 30 nM; read-out: In Vitro Ki Delta
Sequence (P41143 whole entry): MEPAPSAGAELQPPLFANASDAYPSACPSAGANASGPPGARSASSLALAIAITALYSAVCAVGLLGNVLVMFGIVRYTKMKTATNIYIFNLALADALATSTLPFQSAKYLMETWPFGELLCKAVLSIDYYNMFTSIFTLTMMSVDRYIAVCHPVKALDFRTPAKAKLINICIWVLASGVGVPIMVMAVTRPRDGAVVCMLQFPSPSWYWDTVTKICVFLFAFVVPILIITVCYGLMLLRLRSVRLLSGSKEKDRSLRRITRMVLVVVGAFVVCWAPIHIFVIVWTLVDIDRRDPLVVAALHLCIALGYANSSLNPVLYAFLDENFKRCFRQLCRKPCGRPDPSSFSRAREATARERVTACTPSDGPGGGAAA
With a cut-off of 200 nM, any Ki strictly below it is called Y; any Ki meeting it or above is called N.

Field: example entries. Status: answers known.
>>> df
                                   compound  class_assignment
0  CC(C)CCNCc1ccc(Oc2ccc(/C(N)=N/O)cn2)cc1 [Example 2]                 N
1  CC(C)CCNCc1ccc(Oc2ccc(C(=N)N)cn2)cc1 [Example 3]                 N
2  CC(C)CCNCc1ccc(Oc2ccc(C3=NCCN3)cn2)cc1 [Example 4]                 Y
3  CC(C)CCNCc1ccc(Oc2ccc3c(N)noc3c2)cc1 [Example 11]                 Y
4  c1csc(CCNCc2ccc(Oc3ccc(C4=NCCN4)cn3)cc2)c1 [Example 5]                 N

*Q* Hello, I'm reviewing records and need to know if Ki of CC(C)CCNCc1ccc(Oc2ccc(-c3ncc[nH]3)cn2)cc1 [Example 10] is below 200 nM. Could you check?
*A* N

*Q* Another: CC(C)CCNCc1ccc(Oc2ccc(/C(N)=N/C#N)cn2)cc1 [Example 8]
*A* Y
